System: heterozygous GAT-HRA corn
Test: Preemergence effect of ALS herbicides (fresh weight, visual injury)
Conditions: 200 g/ha, fresh shoots 4 weeks after treatment, mean of four replications, untreated 47.0 g
For each record, write down the corresponding Fresh Weight (g) Heterozygous GAT-HRA.
Provide the reading as a plain figure in g.

Output Fresh Weight (g) Heterozygous GAT-HRA of COc1cc(OC)nc(NC(=O)NS(=O)(=O)c2ncccc2OCC(F)(F)F)n1
50.8

Provide one value: measured Fresh Weight (g) Heterozygous GAT-HRA of COc1cc(OC)nc(NC(=O)NS(=O)(=O)c2ncccc2C(=O)N(C)C)n1
50.3

Please report the measured Fresh Weight (g) Heterozygous GAT-HRA for COc1cc(OC)nc(Sc2cccc(Cl)c2C(=O)[O-])n1.[Na+] [Pyrithiobac Na^+, pyrithiobac-sodium]
48.6

Indicate its recorded Fresh Weight (g) Heterozygous GAT-HRA; the compound in question is CCOC(=O)c1ccccc1S(=O)(=O)NC(=O)Nc1nc(Cl)cc(OC)n1
39.4

Give the reported value of Fresh Weight (g) Heterozygous GAT-HRA for this record: CO/N=C(/C)c1cccc(Oc2nc(OC)cc(OC)n2)c1C(=O)OC
39.9
